Hello, the source for this data is the supplement of paper PMC7411054, in case you need it.

phenotypically active for assorted molecules
# Test system: A549-ACTB-RAB5A
# METHOD: phenotypically active (imaging signature differs from DMSO and reproducible) at any of 0.3-9 uM (binary (1 = active, 0 = inactive)); higher = active
# STUDY CONDITIONS: treatment time: 24 h
Structures can show the parent of a compound that is named as a salt.
Output spec: single numeric token, no unit.

Answered cases to consult:
CN1C[C@H](CO)C=C2c3cccc4[nH]cc(c34)C[C@H]21
0
Cc1sc2c(c1C)C(c1ccc(Cl)cc1)=N[C@H](CC(=O)OC(C)(C)C)c1nnc(C)n1-2
0
COc1ccc2c(c1)/C(=C/c1c[nH]cn1)C(=O)N2
1
CCN(CC)CCN1C(=O)CN=C(c2ccccc2F)c2cc(Cl)ccc21
0
CC[C@@H](CO)NC(=O)[C@@H]1C=C2c3cccc4c3c(cn4C)C[C@H]2N(C)C1 [methysergide]
0

**Q:** For C[C@@H](N)[C@@H](O)c1ccccc1 , what is its reported phenotypically active?
**A:** 0

**Q:** Query: phenotypically active; subject: C/C=C1\CN2CC[C@]34c5cc(OC)ccc5N5C(=O)C(O)OC[C@@H]([C@H]53)[C@H]1C[C@H]24 (some centres not stated)
**A:** 0

**Q:** # input molecule: N[C@H]1C[C@@H]1c1ccccc1 ; wanted: its phenotypically active
**A:** 0

**Q:** Please report the recorded phenotypically active for N#CC(C#N)=Cc1ccc(O)c(O)c1 .
**A:** 0

**Q:** Can you look up the measured phenotypically active of CN1CCc2cc3c(cc2[C@H]1[C@@H]1OC(=O)c2c1ccc1c2OCO1)OCO3 for me?
**A:** 0

**Q:** # query: phenotypically active of entry CC(=O)O[C@H]1C[C@@H]2CC[C@@H]3[C@H](CC[C@@]4(C)[C@H]3C[C@H]([N+]3(C)CCCCC3)[C@@H]4OC(C)=O)[C@@]2(C)C[C@@H]1[N+]1(C)CCCCC1
**A:** 0

**Q:** Recorded phenotypically active of CN1C[C@H](C(=O)N[C@]2(C)O[C@@]3(O)[C@@H]4CCCN4C(=O)[C@H](Cc4ccccc4)N3C2=O)C=C2c3cccc4[nH]cc(c34)C[C@H]21 , please.
**A:** 1

**Q:** Endpoint output: phenotypically active of O=C(NCCN1CCC2(CC1)C(=O)NCN2c1cccc(F)c1)c1ccc(F)c(F)c1 [ML 298 hydrochloride] . Value?
**A:** 1

**Q:** Given the molecule CCCCCC[C@H]1C(=O)O[C@H](C)[C@H](NC(=O)c2cccc(NC=O)c2O)C(=O)O[C@@H](C)[C@@H]1OC(=O)CC(C)C [antimycin a] , what is its reported phenotypically active?
**A:** 1

**Q:** // lookup phenotypically active for O=C1NC(=S)N(c2cccc(Br)c2)C(=O)/C1=C/c1ccco1
**A:** 0

**Q:** I am curious: what phenotypically active value has been reported for CO[C@H]1C=C2CCN(C)[C@H]2[C@@H]2c3cc4c(cc3[C@@H](O)O[C@@H]21)OCO4 ?
**A:** 0

**Q:** Data request, read-out phenotypically active, for CCN1CCN(C(=O)Cc2ccc(Nc3ncc(F)c(Nc4ccc(C(=O)Nc5ccccc5Cl)cc4)n3)cc2)CC1
**A:** 1

**Q:** Fill in: phenotypically active of CCn1cnc2c(Nc3cccc(Cl)c3)nc(N[C@H]3CCCC[C@H]3N)nc21 is ___
**A:** 1

**Q:** Can you share its phenotypically active? I mean this molecule: CN1[C@@H]2CC(=O)C[C@H]1[C@H](O)C2 [6-Hydroxytropinone]
**A:** 0
